Provenance of the data: the Kinase Knowledgebase extract (Sharma et al. 2016)

Please respond with reported IC50 for every item in the list.

Form field: IC50 recorded for CC(=O)Nc1cn2cc(-c3cnc(N)c(C(=O)N4CCN(C(=O)OC(C)(C)C)CC4)c3)ccc2n1 with PIK3CA (human) (UniProt P42336) (enter value)
< 1000 nM

Look up IC50 with PIK3CA (human) (UniProt P42336) for this molecule: CN(CC(=O)Nc1cn2cc(-c3cnc(N)c(C(F)(F)F)c3)ccc2n1)C(=O)OC(C)(C)C
Sequence (P42336 whole entry, looked up): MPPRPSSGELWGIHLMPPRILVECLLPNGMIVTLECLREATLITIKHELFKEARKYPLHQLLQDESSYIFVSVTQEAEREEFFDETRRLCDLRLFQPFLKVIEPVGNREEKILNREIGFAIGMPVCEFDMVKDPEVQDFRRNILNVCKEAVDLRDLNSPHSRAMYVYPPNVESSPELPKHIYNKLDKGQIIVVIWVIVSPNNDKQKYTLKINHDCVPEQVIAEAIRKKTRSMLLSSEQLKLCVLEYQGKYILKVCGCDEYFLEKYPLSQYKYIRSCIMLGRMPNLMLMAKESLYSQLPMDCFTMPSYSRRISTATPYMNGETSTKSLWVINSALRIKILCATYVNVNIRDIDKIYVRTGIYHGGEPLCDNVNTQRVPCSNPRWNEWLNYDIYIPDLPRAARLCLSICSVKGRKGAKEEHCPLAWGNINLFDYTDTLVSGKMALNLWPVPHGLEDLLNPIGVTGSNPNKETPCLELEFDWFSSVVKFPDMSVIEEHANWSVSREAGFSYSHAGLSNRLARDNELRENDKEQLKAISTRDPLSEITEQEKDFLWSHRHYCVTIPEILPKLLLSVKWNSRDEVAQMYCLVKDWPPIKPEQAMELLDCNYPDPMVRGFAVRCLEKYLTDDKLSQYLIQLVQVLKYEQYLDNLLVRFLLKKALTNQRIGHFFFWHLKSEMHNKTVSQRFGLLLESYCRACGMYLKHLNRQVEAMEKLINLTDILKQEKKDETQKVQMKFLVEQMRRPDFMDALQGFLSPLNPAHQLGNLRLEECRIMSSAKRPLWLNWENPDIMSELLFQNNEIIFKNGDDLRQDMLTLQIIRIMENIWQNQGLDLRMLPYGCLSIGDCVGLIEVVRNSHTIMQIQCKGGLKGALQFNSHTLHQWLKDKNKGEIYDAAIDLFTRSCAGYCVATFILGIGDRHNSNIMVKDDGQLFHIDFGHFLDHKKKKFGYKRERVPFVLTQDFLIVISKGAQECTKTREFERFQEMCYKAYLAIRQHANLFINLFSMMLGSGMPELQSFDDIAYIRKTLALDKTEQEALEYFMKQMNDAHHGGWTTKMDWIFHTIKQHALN
< 1000 nM

Given the entry CC(=O)NC1CCN(C(=O)Nc2cn3cc(-c4cnc(N)c(C(F)(F)F)c4)ccc3n2)C1 (stereo not given) , what IC50 was observed with PIK3CA (human) (UniProt P42336)?
< 1000 nM

Field: IC50 (PIK3CA (human) (UniProt P42336)). Entry: CC(C)(C)OC(=O)N1CC(C(=O)Nc2cn3nc(-c4cnc(N)c(C(F)(F)F)c4)ccc3n2)C1
< 1000 nM

Request: IC50, test system PIK3CA (human) (UniProt P42336), entry CC(=O)Nc1cn2nc(-c3cnc(N)c(C(=O)NCCN4CCCC4)c3)ccc2n1
< 1000 nM

Write down the reported IC50 of COCCOc1nc(-c2ccc3nc(NC(=O)CN4CCCCC4)cn3c2)cnc1N , test system: PIK3CA (human) (UniProt P42336).
< 1000 nM

Provide value of IC50 for this record tested with PIK3CA (human) (UniProt P42336): COc1cc(-c2ccc3nc(NC(C)=O)cn3c2C)cnc1N
< 1000 nM

Item C/C=C\c1c(NC(C)=O)nc2ccc(-c3cnc(N)c(C(F)(F)F)c3)cn12 with PIK3CA (human) (UniProt P42336) - IC50?
< 1000 nM

I'm curious: which IC50 was measured for CC(=O)Nc1nc2ccc(-c3cnc(N)c(C(F)(F)F)c3)cn2c1C(C)=O tested on PIK3CA (human) (UniProt P42336)?
< 10000 nM

Field: IC50 (PIK3CA (human) (UniProt P42336)). Entry: Nc1ncc(-c2ccc3nc(NC(=O)c4ccc(F)nc4)cn3c2)cc1C(F)(F)F
< 1000 nM

Look up IC50 with PIK3CA (human) (UniProt P42336) for this molecule: CCN1CCCCC1CCC(=O)Nc1cn2nc(-c3cnc(N)c(C(F)(F)F)c3)ccc2n1 (stereo not given)
< 1000 nM

Could you share what IC50 was measured for CNC(=O)C1CCN(C(=O)Nc2cn3cc(-c4cnc(N)c(C(F)(F)F)c4)ccc3n2)C1 (stereo not given) , tested on PIK3CA (human) (UniProt P42336)?
< 1000 nM

Item: CC(=O)Nc1cn2nc(-c3cnc(N)cn3)ccc2n1 Test system: PIK3CA (human) (UniProt P42336) Read-out: IC50 Value: ?
< 1000 nM

Kindly state the measured IC50 obtained for Nc1ncc(-c2ccc3nc(NC(=O)N4CCC[C@H]4C(=O)O)cn3c2)cc1C(F)(F)F with PIK3CA (human) (UniProt P42336).
< 10000 nM

Identify the measured IC50 of CC(=O)Nc1cn2cc(-c3cnc(N)c(C)n3)ccc2n1 for PIK3CA (human) (UniProt P42336).
< 1000 nM

Request body: readout IC50, system PIK3CA (human) (UniProt P42336), query Cc1ccc(C2CCCN2C(=O)Nc2cn3cc(-c4cnc(N)c(C(F)(F)F)c4)ccc3n2)s1 (stereo not given) . Return the value.
< 1000 nM

Notebook entry, PIK3CA (human) (UniProt P42336) assay: IC50 of COC(=O)Nc1nc2ccc(-c3ccc(N)nc3)cc2s1 = ?
< 1000 nM

Form entry - test system: PIK3CA (human) (UniProt P42336); read-out: IC50; molecule: Nc1ncc(-c2ccc3nc(NC(=O)C(F)(F)F)cn3c2)cn1
< 1000 nM

Checklist item: IC50 tested on PIK3CA (human) (UniProt P42336), entry Nc1ncc(-c2ccc3nc(NC(=O)CCO)cn3c2)cc1C(F)(F)F , value?
< 1000 nM

Item C=Cc1c(NC(C)=O)nc2ccc(-c3cnc(N)c(C(F)(F)F)c3)cn12 with PIK3CA (human) (UniProt P42336) - IC50?
< 1000 nM
